Test: Pharmacokinetic analysis of plasma after intravenous and oral dosing
Settings: female, CD-1, mouse, plasma, iv, 15 mg kg^−1, Concentration; Time 4 h; individual animals; Supplementary Figure 12b
Here, each record is paired with measured concentration at 4 h data.
The response must be a number in ng/mL with no trailing unit.

compound	value_unit	concentration at 4 h
O=C(O)c1ccc(F)c(F)c1Nc1ccc(I)cc1F [PD315209, reference compound]	ng/mL	322

Moving on to another compound below.
Entry under test: O=C(O)CCOCCOCCOCCONC(=O)c1ccc(F)c(F)c1Nc1ccc(I)cc1F [LP-622] . Its concentration at 4 h was 36.6

* * *

Test: Pharmacokinetic analysis of plasma after intravenous and oral dosing
Details: female, CD-1, mouse, plasma, po, 400 mg kg^−1, Concentration (ng/mL), mice, single p.o. LP-182 400 mg kg^−1, 4 h; analyte = label; individual animals
outcome_measure: concentration at 4 h
Param answer (str): number followed by unit.

The recorded concentration at 4 h for O=C(NOCCO)c1ccc(F)c(F)c1Nc1ccc(I)cc1F [PD0316684, reference compound] is 76.7 ng/mL

* * *

Assay: in vivo
Details: female, CD-1, mouse, po
outcome_measure: concentration at 0.5 h (ng/mL)
Write down the numeric answer in ng/mL and omit the unit.

Field concentration at 0.5 h (entry COc1ccc(-c2ccc3c(N4CCOC[C@@H]4C)nc(N4CCOC[C@@H]4C)nc3n2)cc1CO ) reads 3700

* * *

Test: Pharmacokinetic analysis of plasma after intravenous and oral dosing
Conditions: female, CD-1, mouse, plasma, iv, 15 mg kg^−1, Concentration, Supplementary Figure 6a; Time 0.167 h; individual replicates
outcome_measure: concentration at 0.167 h (ng/mL)
Give your result in ng/mL as a bare value.

molecule	value_unit	concentration at 0.167 h
O=C(O)c1ccc(F)c(F)c1Nc1ccc(I)cc1F [PD315209, reference compound]	ng/mL	934

Reported concentration at 0.167 h of O=C(O)CCOCCOCCOCCONC(=O)c1ccc(F)c(F)c1Nc1ccc(I)cc1F : 9.48

* * *

Experiment: Compound quantitation in blood and mesenteric lymph nodes
Format: in vivo, mouse
Conditions: female, CD-1, mouse, mesenteric lymph nodes; mice, 30 min after oral 100-1000 mg kg^−1
Protocol: Whole blood and mesenteric lymph nodes were collected either 30 min or 4 h following compound administration and stored at −20 °C until future processing and analysis by the University of Michigan Pharmacokinetics Core as above, or as outlined below, to determine compound concentrations in each tissue. […] Data was generated from n ≥ 4 individual animals per compound per study group or dose. […]
outcome_measure: concentration at 30 min

// sample O=C(NOCCOCCOCCOCCC(=O)N1CCN(c2cnc3ccc(-c4cnc(Cl)c(NS(=O)(=O)c5ccc(F)cc5)c4)cc3n2)CC1)c1ccc(F)c(F)c1Nc1ccc(I)cc1F , its concentration at 30 min was 5 to 15 µM

* * *

Test: Pharmacokinetic analysis of plasma after intravenous and oral dosing
Conditions: female, CD-1, mouse, plasma, po, 200 mg kg^−1, Concentration, Figure 6c; Time 0.5 h; individual replicates
outcome_measure: concentration at 0.5 h (ng/mL)
Just the number please, in ng/mL, no unit attached.

# concentration at 0.5 h of O=C(NOCCO)c1ccc(F)c(F)c1Nc1ccc(I)cc1F [PD0316684, reference compound] = 644
